Give measured half-life for each item. Keep answers brief.
# assaySummary: Stability in dog liver microsomes assessed as half life
# Type: ADME, Canis lupus familiaris, Microsome
Answer format: numeric, min implied, no suffix.

Lab note: CN(C)c1ccc(C(=O)NCCCCCNC(=O)CS)cc1 gave half-life of 43

Input O=C(CS)NCCCCCC(=O)Nc1cccc2cccnc12 . Output half-life: 72

====

# assaySummary: Apparent permeability across basolateral to apical side in human Caco-2 cells
# Format: ADME, cell-based
measure: Papp B→A
Answer with the value and then the unit.

Record summary for CN(C)c1ccc(C(=O)NCCCCCNC(=O)CS)cc1 : reported Papp B→A = 10 ×10⁻⁶ cm/s

The recorded Papp B→A for O=C(CS)NCCCCCC(=O)Nc1cccc2cccnc12 is 24.7 ×10⁻⁶ cm/s

Record O=C(CCCCCCC(=O)Nc1ccccc1)NO [VORINOSTAT] . Reported Papp B→A: 6.33 ×10⁻⁶ cm/s
